- Test system: SUP-B15
- measurement protocol: selective drug sensitivity score (sDSS, relative to normal bone marrow) (sDSS (score)); higher = more potent and effective on the cell line relative to normal bone marrow cells;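 note: ALL cell lines in 384-well plates, five doses spanning 10,000-fold, each plate scaled between vehicle and 100 µmol/L benzalkonium chloride controls, sDSS an adapted area-under-curve metric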
- condition summary: 72 h
endpoint name: selective drug sensitivity score
Lab note: jot the number down without any unit.

## Input I'd like to know its selective drug sensitivity score. The compound in question is COc1cc(C)[nH]c(=O)c1CNC(=O)c1c(C)n([C@H](C)C2CCOCC2)c2ccccc12 [CPI-360] (top concentration 10000 nM)
## Output 0

## Input # selective drug sensitivity score lookup, item CC(C)c1c(C(=O)Nc2ccccc2)c(-c2ccccc2)c(-c2ccc(F)cc2)n1CC[C@@H](O)C[C@@H](O)CC(=O)O [Atorvastatin] (top concentration 10000 nM)
## Output 0.8

## Input What selective drug sensitivity score value was documented for this compound, CC(C)Cn1cnc2c(N)nc3ccccc3c21 [Imiquimod] (top concentration 2500 nM) ?
## Output 0.3

## Input Form field: reported selective drug sensitivity score of CS(=O)(=O)N1CCN(Cc2cc3nc(-c4cccc5[nH]ncc45)nc(N4CCOCC4)c3s2)CC1 [Pictilisib] (top concentration 10000 nM)
## Output 0.16

## Input Bench note: what selective drug sensitivity score did Nc1ncn([C@@H]2O[C@H](CO)[C@@H](O)[C@H]2O)c(=O)n1 [Azacitidine] (top concentration 10000 nM) show?
## Output 11.6

## Input Reported selective drug sensitivity score, compound CC(C)c1cc(-c2n[nH]c(=O)n2-c2ccc3c(ccn3C)c2)c(O)cc1O [Ganetespib] (top concentration 1000 nM) : ____
## Output 1.74

## Input Entry Cc1cc(C)c(CNC(=O)c2cc(-c3ccc(CN4CCOCC4)cc3)cc3c2cnn3C2CCCC2)c(=O)[nH]1 [EPZ-5687] (top concentration 10000 nM) : reported selective drug sensitivity score = ?
## Output -0.36

## Input For the compound C[C@@H](Oc1ccc2[nH]nc(/C=C/c3cnn(CCO)c3)c2c1)c1c(Cl)cncc1Cl (top concentration 1000 nM) , what selective drug sensitivity score is on record?
## Output 6.76

## Input Can you share its selective drug sensitivity score? I mean this compound: Cc1nc(-c2cn3c(n2)-c2ccc(-c4cnn(C(C)(C)C(N)=O)c4)cc2OCC3)n(C(C)C)n1 [Taselisib] (top concentration 1000 nM)
## Output -1.4

## Input Fill blank: measured selective drug sensitivity score of the compound Cn1cnc2c(F)c(Nc3ccc(Br)cc3F)c(C(=O)NOCCO)cc21 [Binimetinib] (top concentration 1000 nM) is ____.
## Output 11.2

## Input Can you look up the measured selective drug sensitivity score of CCn1cc(-c2ccnc3[nH]c(-c4cccc(CN(C)C)c4)cc23)c(-c2ccc(NC(=O)N(C)C)cc2)n1 (top concentration 1000 nM) for me?
## Output 23.9

## Input I have this compound here, CN(CC(=O)N(Cc1ccc(C2CCCCC2)cc1)c1ccc(C(=O)O)cc1)S(=O)(=O)c1c(F)c(F)c(F)c(F)c1F [SH-4-54] (top concentration 25000 nM) , and I need its recorded selective drug sensitivity score.
## Output -5.94

## Input Reported selective drug sensitivity score, compound N#CC(c1ccnc(OCc2ccc(CN3CCOCC3)cc2)n1)c1nc2ccccc2s1 (centres undefined) [Bentamapimod] (top concentration 10000 nM) : ____
## Output 2.34

## Input Quick check: selective drug sensitivity score of Nc1ncnc2c1c(COc1cccc(Cl)c1)nn2C1CCOCC1 (top concentration 10000 nM) ?
## Output 0.16

====

- Tested on: KASUMI-10
- measurement protocol: selective drug sensitivity score (sDSS, relative to normal bone marrow) (sDSS (score)); higher = more potent and effective on the cell line relative to normal bone marrow cells
- condition summary: 72 h
endpoint name: selective drug sensitivity score
Please give only the number in your answer, with no unit.

## Input Requested read-out: selective drug sensitivity score. Entry: Cc1cccc(-c2nn3c(c2-c2ccnc4ccc(C(N)=O)cc24)CCC3)n1 [Galunisertib] (top concentration 1000 nM)
## Output 0

## Input Look up selective drug sensitivity score for this molecule: CC(C)(C#N)c1cc(Cn2cncn2)cc(C(C)(C)C#N)c1 [Anastrozole] (top concentration 10000 nM)
## Output 0

## Input Query: selective drug sensitivity score; subject: Cc1cc2c(C(=O)NC[C@H](C)c3ccccc3)c(O)c(O)cc2c(O)c1-c1c(C)cc2c(C(=O)NC[C@H](C)c3ccccc3)c(O)c(O)cc2c1O [Sabutoclax] (top concentration 25000 nM)
## Output 5.18

## Input Sample O=c1[nH]c(C2CCCN2)nc2c1oc1ccc(Cl)cc12 (stereo unspecified) (top concentration 10000 nM) — what was its selective drug sensitivity score?
## Output -2.7

## Input Report selective drug sensitivity score for Nc1nc(N)c2nc(-c3cccc(O)c3)c(-c3cccc(O)c3)nc2n1 [TG100-115] (top concentration 10000 nM) please.
## Output 0.1

## Input Suppose we examine the molecule Nc1cc(COc2c(Cl)cc(C[C@H](N)C(=O)O)cc2Cl)c2oc(-c3ccccc3)nc2c1 [JPH203] (top concentration 5000 nM) ; what selective drug sensitivity score value has been reported?
## Output 0.2

====

Kindly supply the reported selective drug sensitivity score values for the records listed here.
- System: COG-LL-355h
- measurement protocol: selective drug sensitivity score (sDSS, relative to normal bone marrow) (sDSS (score)); higher = more potent and effective on the cell line relative to normal bone marrow cells
- condition summary: 72 h

## Input Name the reported selective drug sensitivity score value associated with the compound CN1CCN(c2nc(C3=C(c4c[nH]c5ccccc45)C(=O)NC3=O)c3ccccc3n2)CC1 [Sotrastaurin] (top concentration 10000 nM)
## Output 5.7

## Input Which measured selective drug sensitivity score value corresponds to C=C(c1ccc(C(=O)O)cc1)c1cc2c(cc1C)C(C)(C)CCC2(C)C [Bexarotene] (top concentration 10000 nM) ?
## Output -5.1

## Input Would you kindly share the measured selective drug sensitivity score for Nc1ncn([C@H]2C[C@H](O)[C@@H](CO)O2)c(=O)n1 [Decitabine] (top concentration 10000 nM) ?
## Output -0.96

## Input Which selective drug sensitivity score value belongs to CCOC(=O)C1=CCCC[C@H]1S(=O)(=O)Nc1ccc(F)cc1Cl [Resatorvid] (top concentration 10000 nM) ?
## Output 0

## Input Can you look up the measured selective drug sensitivity score of CNc1nc(-c2ccc3c(N)n[nH]c3c2)cc(N2C[C@@H](C(=O)NC3CCCCC3)CC[C@H]2C)n1 (top concentration 10000 nM) for me?
## Output 6.66

## Input Can you share its selective drug sensitivity score? I mean this compound: CS(=O)(=O)c1ccc(C(=O)Nc2ccc(Cl)c(-c3ccccn3)c2)c(Cl)c1 [Vismodegib] (top concentration 10000 nM)
## Output 2.26

## Input Look at this compound and give its reported selective drug sensitivity score. Cc1cc(-c2ncc(CC(=O)Nc3ccc(-c4cnccn4)cn3)cc2C)ccn1 [NVP-LGK974] (top concentration 10000 nM)
## Output 3.3

## Input Could you tell me which selective drug sensitivity score is on file for Nc1nc(OCc2cc(Br)cs2)c2[nH]cnc2n1 [Lomeguatrib] (top concentration 10000 nM) ?
## Output 1

## Input May I ask what selective drug sensitivity score has been recorded for NC(=O)c1cccc(-c2cccc(OC(=O)NC3CCCCC3)c2)c1 [URB597] (top concentration 1000 nM) ?
## Output -0.06

## Input I am curious: what selective drug sensitivity score value has been reported for CCN1CCN(Cc2ccc(Nc3ncc(F)c(-c4cc(F)c5nc(C)n(C(C)C)c5c4)n3)nc2)CC1 [Abemaciclib] (top concentration 2500 nM) ?
## Output 6.44

## Input Which selective drug sensitivity score is reported for this compound? Cn1cncc1[C@@](N)(c1ccc(Cl)cc1)c1ccc2c(c1)c(-c1cccc(Cl)c1)cc(=O)n2C [Tipifarnib] (top concentration 10000 nM)
## Output 4.5

## Input Consider the compound shown here: CCn1c(-c2nonc2N)nc2cnc(Oc3cccc(NC(=O)c4ccc(OCCN5CCOCC5)cc4)c3)cc21 (top concentration 10000 nM) What is its recorded selective drug sensitivity score?
## Output -2.34

## Input Return reported selective drug sensitivity score; argument: Nc1ncnc2c1c(COc1cccc(Cl)c1)nn2C1CCOCC1 (top concentration 10000 nM)
## Output 2.06

## Input Give its selective drug sensitivity score value. Item: CC1(C)CC[C@]2(NC(=O)C(C)(F)F)CC[C@]3(C)[C@H](C(=O)C=C4[C@@]5(C)C=C(C#N)C(=O)C(C)(C)[C@@H]5CC[C@]43C)[C@@H]2C1 [Omaveloxolone] (top concentration 10000 nM)
## Output 4.88

## Input What does the data say about its selective drug sensitivity score? Entry: O=C(CCCCCCC(=O)Nc1ccc([C@H]2O[C@@H](CSc3nc(-c4ccccc4)c(-c4ccccc4)o3)C[C@@H](c3ccc(CO)cc3)O2)cc1)NO [Tubacin] (top concentration 10000 nM)
## Output 7.14

## Input Value lookup for selective drug sensitivity score; key = CCN(CC)Cc1ccc2cc(COC(=O)Nc3ccc(C(=O)NO)cc3)ccc2c1 [Givinostat] (top concentration 1000 nM)
## Output 5

## Input Requested field: selective drug sensitivity score. Item: CCc1cc2c(cc1N1CCC(N3CCOCC3)CC1)C(C)(C)c1[nH]c3cc(C#N)ccc3c1C2=O [Alectinib] (top concentration 1000 nM)
## Output -0.02

## Input Bench note: what selective drug sensitivity score did COc1cccc2c1C(=O)c1c(O)c3c(c(O)c1C2=O)C[C@@](O)(C(C)=O)C[C@@H]3O[C@H]1C[C@H](N)[C@H](O)[C@H](C)O1 [Daunorubicin] (top concentration 1000 nM) show?
## Output 5.06

## Input Entry Cc1c(Cn2c(C)nc3c(C(=O)O)cc(N4CCOCC4)cc32)cccc1C(F)(F)F (top concentration 10000 nM) : reported selective drug sensitivity score = ?
## Output 1.98

## Input What measured selective drug sensitivity score goes with CCCOc1ccn2c(C(C)=O)cc(-c3ccccc3S(C)(=O)=O)c2c1 [GSK2801] (top concentration 10000 nM) ?
## Output -0.36

## Input Query (compound): Cc1noc2c1-c1ccccc1C(c1ccc(Cl)cc1)=N[C@H]2CC(N)=O [CPI-0610] (top concentration 10000 nM) ; field requested: selective drug sensitivity score
## Output 10.3

## Input // selective drug sensitivity score lookup, key: CN1CCc2c(c3ccccc3n2Cc2ccc(C(=O)NO)cc2)C1 [Tubastatin_A] (top concentration 10000 nM)
## Output 3.16

## Input Look at this compound and give its reported selective drug sensitivity score. Oc1nc(-c2ccc(C(F)(F)F)cc2)nc2c1CSCC2 [XAV939] (top concentration 10000 nM)
## Output 0.46

## Input Which selective drug sensitivity score reading was recorded for the compound NCC(=O)Nc1ccc(-n2nc(C(F)(F)F)cc2-c2ccc3c(ccc4ccccc43)c2)cc1 (top concentration 25000 nM) ?
## Output -0.2

## Input I'd like to know its selective drug sensitivity score. The compound in question is O=C(O)C(=O)O.[NH-][C@@H]1CCCC[C@H]1[NH-].[Pt+2] [Oxaliplatin] (top concentration 100000 nM)
## Output 4.92
